# Target of assay: BACE-1 (Homo sapiens)
# Construct: endogenous in cells; host or cells: HEK-293 cells stably transfected with wild type APP695
# Sequence (P56817 46-501): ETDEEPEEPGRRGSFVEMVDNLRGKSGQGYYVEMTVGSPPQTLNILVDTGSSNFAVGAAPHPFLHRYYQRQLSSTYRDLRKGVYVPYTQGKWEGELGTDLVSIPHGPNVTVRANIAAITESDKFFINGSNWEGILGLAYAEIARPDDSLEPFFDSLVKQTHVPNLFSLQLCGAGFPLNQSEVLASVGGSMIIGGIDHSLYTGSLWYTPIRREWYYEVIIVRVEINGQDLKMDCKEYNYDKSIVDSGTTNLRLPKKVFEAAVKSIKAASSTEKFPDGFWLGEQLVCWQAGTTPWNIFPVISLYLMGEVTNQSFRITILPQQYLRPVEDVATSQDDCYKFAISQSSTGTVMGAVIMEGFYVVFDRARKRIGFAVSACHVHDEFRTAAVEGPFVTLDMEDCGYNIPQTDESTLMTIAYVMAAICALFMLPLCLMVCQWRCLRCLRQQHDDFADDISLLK
# Assay explanation: Cellular BACE-1 inhibition assay (in vitro cellular Amyloidβ 1-40 production, HTRF immunoassay)
# Format: cell-based
Quantity measured: IC50
Hi, when you answer, please include the unit after the number. Thanks!

Field IC50 (system: BACE-1 (Homo sapiens)) for entry C[C@@]12CCOC[C@H]1C1(COC(N)=N1)c1cc(-c3cccnc3F)ccc1C2 (relative stereo) = 0.219 µM

###

For each record, write down the corresponding log10 of IC50.
# Target of assay: BACE-1 (Homo sapiens)
# Construct: endogenous in cells; host or cells: HEK-293 cells stably transfected with wild type APP695
# Assay explanation: Cellular BACE-1 inhibition assay (in vitro cellular Amyloidβ 1-40 production, HTRF immunoassay)
# Format: cell-based
# Measurement parameters: inhibition of Amyloidβ 1-40 production; HEK-293 cells stably transfected with wild type APP695; 48 hours incubation; average where tested more than once; read-out: IC50
Would you kindly interpret these values as log10 of IC50 expressed in nM?

Field log10 of IC50 (system: BACE-1 (Homo sapiens)) for entry NC1=NC2(CO1)c1cc(-c3cncnc3)ccc1OC1CCCCC12 (single isomer, unassigned) [Example 11] = 1.84

Field log10 of IC50 (system: BACE-1 (Homo sapiens)) for entry NC1=NC2(CO1)c1cc(NC(=O)c3ccc(Cl)cn3)ccc1OC1CCCCC12 (single isomer, unassigned) [Example 16] = 2.23

Field log10 of IC50 (system: BACE-1 (Homo sapiens)) for entry NC1=N[C@@]2(CO1)c1cc(-c3cncc(Cl)c3)ccc1OC1CC[C@H](OCC3CC3)C[C@@H]12 (relative stereo) [Example 28] = 0.89

Field log10 of IC50 (system: BACE-1 (Homo sapiens)) for entry N#Cc1cc(Cl)cc(-c2ccc3c(c2)[C@@]2(COC(N)=N2)[C@H]2C[C@@H](OC4CCC4)CC[C@@H]2O3)c1 [Example 156] = 1.97

Field log10 of IC50 (system: BACE-1 (Homo sapiens)) for entry NC1=NC2(CO1)c1cc(-c3cncnc3)ccc1OC1CCC(O)C[C@@H]12 (stereo in doubt) [Example 32] = 2.07

Field log10 of IC50 (system: BACE-1 (Homo sapiens)) for entry NC1=N[C@@]2(CS1)c1cc(-c3cncnc3)ccc1O[C@H]1CC[C@H](O)C[C@@H]12 [Example 146] = 2.28

Field log10 of IC50 (system: BACE-1 (Homo sapiens)) for entry CCO[C@H]1CC[C@@H]2Oc3ccc(-c4cc(F)cc(C#N)c4)cc3C3(COC(N)=N3)[C@H]2C1 (stereo partly shown) [Example 159] = 1.88
